TEST_TARGET: CYP 1A2 (Homo sapiens)
Sequence (P05177 1-516): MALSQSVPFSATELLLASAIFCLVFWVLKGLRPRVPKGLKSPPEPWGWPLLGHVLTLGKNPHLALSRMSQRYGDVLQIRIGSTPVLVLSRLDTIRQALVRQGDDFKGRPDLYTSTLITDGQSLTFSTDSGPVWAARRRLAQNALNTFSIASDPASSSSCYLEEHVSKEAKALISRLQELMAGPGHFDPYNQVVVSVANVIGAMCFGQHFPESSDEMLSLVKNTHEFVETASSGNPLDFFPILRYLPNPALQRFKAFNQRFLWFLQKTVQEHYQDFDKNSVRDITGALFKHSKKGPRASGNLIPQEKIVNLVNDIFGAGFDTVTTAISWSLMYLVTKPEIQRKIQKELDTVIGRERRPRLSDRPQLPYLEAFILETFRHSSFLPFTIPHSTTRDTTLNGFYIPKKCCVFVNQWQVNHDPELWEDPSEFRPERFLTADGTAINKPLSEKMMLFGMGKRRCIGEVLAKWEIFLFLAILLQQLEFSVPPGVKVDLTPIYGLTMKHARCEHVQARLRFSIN
pIC50: −log10 of the molar value.
TEST_READOUT: pIC50

Qu. If you can, please state the reported pIC50 value of CN(C)CCCOc1ccc2c(NCCc3cnc(NC(=O)Nc4cccc(Cl)c4)s3)ncnc2c1 .
Ans. < 5.40

These data points were gathered from paper PMC5349910.
